# Test system: CD8+ T cells
# EXPERIMENT NOTES: In vitro T-cell priming immunogenicity assay with aAPCs, HLA-A*24 peptides
# Format: cell-based, human
# DETAILS: in vitro immunogenicity, pMHC multimer readout after aAPC priming of CD8+ T cells
OBSERVATION TYPE: Wells positive [%]

{"SUBSTANCE": "207 (AYVVFVSTL; listed as Homo sapiens) [compound 207]", "SYSTEM TESTED": "CD8+ T cells", "TEST VALUE": "+ (<20% = +)"}
{"SUBSTANCE": "269 (YFIDSTNLKTHF; listed as Homo sapiens) [compound 269]", "SYSTEM TESTED": "CD8+ T cells", "TEST VALUE": "+ (<20% = +)"}
{"SUBSTANCE": "197 (EYSLFPGQVVI; listed as Homo sapiens) [compound 197]", "SYSTEM TESTED": "CD8+ T cells", "TEST VALUE": "+ (<20% = +)"}
{"SUBSTANCE": "204 (TYELRYFQI; listed as Homo sapiens) [compound 204]", "SYSTEM TESTED": "CD8+ T cells", "TEST VALUE": "+ (<20% = +)"}
{"SUBSTANCE": "167 (NYINRILKL; listed as Homo sapiens) [compound 167]", "SYSTEM TESTED": "CD8+ T cells", "TEST VALUE": "+ (<20% = +)"}
